Assay: Metabolic stability in human hepatic microsome
Assay type: in vitro ADME
Conditions: microsomes, pH 7.4; human hepatic microsome, NADPH(+); read-out: CL NADPH(+)
Starred links: 1 amine or outer side, 2 acyl side, 3 side chain; linkers in the order of their positions; H or OH if unused. Positions of bridges follow the written chain, without caps; N, C: chain ends. Non-standard residues stand in square brackets, D forms with d. Residues, ends and D or L forms follow the SMILES beside them. *: point of attachment. NMeF = CN[C@@H](Cc1ccccc1)C(=O)O; NMeI = CC[C@H](C)[C@H](NC)C(=O)O; NMeβAla = CN(CCC(=O)[*:2])[*:1]; NMeL = CN[C@@H](CC(C)C)C(=O)O; Pip = O=C(O)[C@@H]1CCCCN1; NMeA = CN[C@@H](C)C(=O)O; Piperidide = C1CCN(*)CC1; dNMeA = CN[C@H](C)C(=O)O; tBu = CC(C)(C)*
measuredEndpoint: microsomal CLint at 1 uM
Don't forget the unit after the number, please.

CC(C)C[C@@H]1NC(=O)[C@H](CC(C)C)N(C)C(=O)[C@H](CC(C)C)N(C)C(=O)[C@@H](C)N(C)C(=O)C[C@@H](C(=O)N(C)[C@@H](Cc2ccccc2)C(=O)N[C@@H](C)C(=O)N2CCCCC2)NC(=O)[C@H](CC(C)C)N(C)C(=O)[C@H](Cc2ccccc2)NC(=O)[C@H](Cc2ccccc2)N(C)C(=O)[C@H](C)NC(=O)[C@H]([C@@H](C)O)NC1=O [DP-451] ([dNMeA][NMeL][NMeL]LTA[NMeF]F[NMeL]D[NMeF]A-Piperidide; lactam N-10) = 14 µL/min/mg
CC(C)C[C@H]1C(=O)N[C@@H]([C@@H](C)O)C(=O)N[C@@H](COC(C)(C)C)C(=O)N[C@H](C(=O)N2CCCCC2)CC(=O)N(C)CCC(=O)N(C)[C@@H](Cc2ccccc2)C(=O)N(C)[C@@H](CC(C)C)C(=O)N1C [DP-747] ([NMeβAla][NMeF][NMeL][NMeL]TS(tBu)D-Piperidide; lactam N-7) = 248 µL/min/mg

Query string: Dear colleague, I am looking for the recorded microsomal CLint at 1 uM of the following compound: CC[C@H](C)[C@H](NC(=O)[C@H](CC(C)C)NC(=O)[C@H](CC(C)C)N(C)C(=O)[C@@H]1CC(=O)N[C@H](C(C)C)C(=O)N[C@@H](CC(C)C)C(=O)N(C)[C@@H](CC(C)C)C(=O)N[C@@H]([C@@H](C)O)C(=O)N[C@@H](C(C)C)C(=O)N(C)[C@@H](CC(C)C)C(=O)N(C)[C@@H](Cc2ccccc2)C(=O)N1)C(=O)N1CCCCC1 [DP-933] ([dV]L[NMeL]TV[NMeL][NMeF]D[NMeL]LI-Piperidide; lactam N-8)
Result string: 43 µL/min/mg

Query string: Dear colleague, I am looking for the recorded microsomal CLint at 1 uM of the following compound: CC[C@H](C)[C@H]1C(=O)NCC(=O)N(C)[C@@H](CC(C)C)C(=O)N[C@@H]([C@@H](C)O)C(=O)N2CCC[C@H]2C(=O)N[C@@H](Cc2ccccc2)C(=O)N[C@H](C(=O)N2CCCCC2)CC(=O)N(C)[C@@H](C)C(=O)N[C@@H](Cc2ccccc2)C(=O)N2CCCC[C@H]2C(=O)N[C@@H](CC(C)C)C(=O)N1C [DP-553] ([NMeA]F[Pip]L[NMeI]G[NMeL]TPFD-Piperidide; lactam N-11)
Result string: 106 µL/min/mg

Query string: Dear colleague, I am looking for the recorded microsomal CLint at 1 uM of the following compound: CC[C@H](C)[C@H](NC(=O)[C@@H]1CCCN1C(=O)[C@@H]1CC(=O)N[C@@H](C)C(=O)N[C@@H](CC(C)C)C(=O)N(C)[C@@H]([C@@H](C)CC)C(=O)N[C@@H](C(C)C)C(=O)N(C)[C@@H](Cc2ccccc2)C(=O)N[C@@H](CC(C)C)C(=O)N(C)[C@@H](Cc2ccccc2)C(=O)N1)C(=O)N1CCCCC1 [DP-965] (AL[NMeI]V[NMeF]L[NMeF]DPI-Piperidide; lactam N-8)
Result string: 56 µL/min/mg

Query string: Dear colleague, I am looking for the recorded microsomal CLint at 1 uM of the following compound: `C=C1CCC(=O)N[C@@H](CC(C)C)C(=O)N2CCC[C@H]2C(=O)N(C)[C@@H](C(C)C)C(=O)N[C@@H](Cc2ccccc2)C(=O)N(C)CC(=O)N(C)[C@@H](CC(C)C)C(=O)N[C@@H](C)C(=O)N(C)[C@@H]([C@@H](C)CC)C(=O)N[C@H](C(=O)N2CCCCC2)Cc2ccc1cc2`
Result string: 490 µL/min/mg

###

Assay: PAMPA (parallel artificial membrane permeability assay)
Assay type: in vitro ADME
Conditions: PAMPA, pH 6.5
Starred links: 1 amine or outer side, 2 acyl side, 3 side chain; linkers in the order of their positions; H or OH if unused. Non-standard residues stand in square brackets, D forms with d. Residues, ends and D or L forms follow the SMILES beside them. NMeF = CN[C@@H](Cc1ccccc1)C(=O)O; NMeI = CC[C@H](C)[C@H](NC)C(=O)O; NMeβAla = CN(CCC(=O)[*:2])[*:1]; NMeL = CN[C@@H](CC(C)C)C(=O)O; NMeV = CN[C@H](C(=O)O)C(C)C; NMeA = CN[C@@H](C)C(=O)O; β3hA = C[C@H](N)CC(=O)O
measuredEndpoint: Papp at 18 hours, 50 µM (×10⁻⁶ cm/s)
# output: bare number, implied unit ×10⁻⁶ cm/s

CC(C)C[C@H]1C(=O)N(C)[C@@H](C)C(=O)N[C@@H](C)C(=O)N[C@@H](C)CC(=O)N(C)CCC(=O)N(C)[C@@H](Cc2ccccc2)C(=O)N(C)[C@@H](C)C(=O)N[C@@H]([C@@H](C)O)C(=O)N(C)[C@@H](C)C(=O)N[C@@H](Cc2ccccc2)C(=O)N(C)[C@@H](C(C)C)C(=O)N1C [DP-763] (cyclo(A[β3hA][NMeβAla][NMeF][NMeA]T[NMeA]F[NMeV][NMeL][NMeA])) = 2.5

Shift focus to the following entry.
Query string: Dear colleague, I am looking for the recorded Papp at 18 hours, 50 µM of the following compound: CC[C@H](C)[C@H]1C(=O)NCC(=O)N(C)[C@@H](C)C(=O)N[C@@H](CC(C)C)C(=O)N[C@@H](C)CC(=O)N(C)[C@@H](C)C(=O)N[C@@H](CC(C)C)C(=O)N(C)[C@@H](C)C(=O)N[C@@H]([C@@H](C)O)C(=O)N2CCC[C@H]2C(=O)N1C [DP-827] (cyclo(G[NMeA]L[β3hA][NMeA]L[NMeA]TP[NMeI]))
Result string: 5.8

###

Test: PAMPA (parallel artificial membrane permeability assay)
Assay type: in vitro ADME
Settings: PAMPA; membrane permeation rate (Pe); 50 mM MOPSO buffer pH 6.5 with 5.0% glycocholic acid, 37° C., 18 hours; read-out: iPAMPA Pe
Starred links: 1 amine or outer side, 2 acyl side, 3 side chain; linkers in the order of their positions; H or OH if unused. Positions of bridges follow the written chain, without caps; N, C: chain ends. Non-standard residues stand in square brackets, D forms with d. Residues, ends and D or L forms follow the SMILES beside them. *: point of attachment. NMeF = CN[C@@H](Cc1ccccc1)C(=O)O; NMeGABA = CN(CCCC(=O)[*:2])[*:1]; NMeI = CC[C@H](C)[C@H](NC)C(=O)O; NMeL = CN[C@@H](CC(C)C)C(=O)O; Piperidide = C1CCN(*)CC1
Decide by Papp at 18 hours, 50 µM: equal to or exceeding 10 ×10⁻⁶ cm/s means yes (1), less means no (0).

Query string: Decide: is the reported value of Papp at 18 hours, 50 µM for CC[C@H](C)[C@H]1C(=O)N(C)[C@@H](Cc2ccccc2)C(=O)N[C@@H](CC(C)C)C(=O)N[C@H](C(=O)N2CCCCC2)CC(=O)N(C)CCCC(=O)N(C)[C@@H](CC(C)C)C(=O)N[C@@H]([C@@H](C)O)C(=O)N(C)[C@@H](Cc2ccccc2)C(=O)N(C)[C@@H](CC(C)C)C(=O)N(C)[C@@H](CC(C)C)C(=O)N[C@@H](C)C(=O)N1C [DP-248] ([NMeGABA][NMeL]T[NMeF][NMeL][NMeL]A[NMeI][NMeF]LD-Piperidide; lactam N-11) equal to or greater than 10 ×10⁻⁶ cm/s?
Result string: no (0)

###

Test: Metabolic stability in human hepatic microsome
Assay type: in vitro ADME
Conditions: human, microsomes, pH 7.4, CL NADPH(+)
Positions of bridges follow the written chain, without caps; N, C: chain ends. Non-standard residues stand in square brackets, D forms with d. Residues, ends and D or L forms follow the SMILES beside them. *: point of attachment. NMeF = CN[C@@H](Cc1ccccc1)C(=O)O; NMeI = CC[C@H](C)[C@H](NC)C(=O)O; NMeL = CN[C@@H](CC(C)C)C(=O)O; NMeV = CN[C@H](C(=O)O)C(C)C; NMeA = CN[C@@H](C)C(=O)O; Piperidide = C1CCN(*)CC1; dNMeA = CN[C@H](C)C(=O)O; β3hA = C[C@H](N)CC(=O)O; tBu = CC(C)(C)*
Listed below: microsomal CLint at 1 uM values for each entry.
# output: bare number, implied unit µL/min/mg

Query string: Dear colleague, I am looking for the recorded microsomal CLint at 1 uM of the following molecule: CC[C@H](C)[C@H]1C(=O)N[C@@H](C)C(=O)N(C)[C@@H](CC(C)C)C(=O)N[C@@H]([C@@H](C)O)C(=O)N[C@@H](Cc2ccccc2)C(=O)N(C)[C@@H](Cc2ccccc2)C(=O)N(C)[C@@H](CC(C)C)C(=O)N[C@@H](COC(C)(C)C)C(=O)N(C)[C@@H](CC(C)C)C(=O)N(C)[C@@H](C)C(=O)N[C@@H](C)CC(=O)N[C@H](C(C)C)C(=O)N1C [DP-760] (cyclo(A[NMeL]TF[NMeF][NMeL]S(tBu)[NMeL][NMeA][β3hA][dV][NMeI]))
Result string: 194

Query string: Dear colleague, I am looking for the recorded microsomal CLint at 1 uM of the following molecule: CC(C)C[C@H]1C(=O)NCC(=O)N[C@H](C(=O)N2CCCCC2)CC(=O)N(C)[C@@H](C)C(=O)N[C@@H]([C@@H](C)O)C(=O)N(C)[C@@H](C)C(=O)N(C)[C@@H](Cc2ccccc2)C(=O)N[C@@H](COC(C)(C)C)C(=O)N(C)[C@@H](Cc2ccccc2)C(=O)N1C [DP-79] ([NMeA]T[NMeA][NMeF]S(tBu)[NMeF][NMeL]GD-Piperidide; lactam N-9)
Result string: 145

Query string: Dear colleague, I am looking for the recorded microsomal CLint at 1 uM of the following molecule: CC(C)C[C@H]1C(=O)N(C)[C@@H](C)C(=O)N[C@@H]([C@@H](C)O)C(=O)N(C)[C@@H](C)C(=O)N(C)[C@@H](C(C)C)C(=O)N[C@@H](COC(C)(C)C)C(=O)N[C@H](C(=O)N2CCCCC2)CC(=O)N(C)[C@H](C)C(=O)N(C)[C@@H](Cc2ccccc2)C(=O)N[C@@H](C)C(=O)N(C)[C@@H](C)C(=O)N[C@@H](Cc2ccccc2)C(=O)N1C [DP-409] ([dNMeA][NMeF]A[NMeA]F[NMeL][NMeA]T[NMeA][NMeV]S(tBu)D-Piperidide; lactam N-12)
Result string: 28

Query string: Dear colleague, I am looking for the recorded microsomal CLint at 1 uM of the following molecule: CC[C@H](C)[C@H]1C(=O)NCC(=O)N(C)[C@@H](C)C(=O)N[C@@H](CC(C)C)C(=O)N[C@@H](C)CC(=O)N(C)[C@@H](C)C(=O)N[C@@H](CC(C)C)C(=O)N(C)[C@@H](C)C(=O)N[C@@H]([C@@H](C)O)C(=O)N2CCC[C@H]2C(=O)N1C [DP-827] (cyclo(G[NMeA]L[β3hA][NMeA]L[NMeA]TP[NMeI]))
Result string: 49

Query string: Dear colleague, I am looking for the recorded microsomal CLint at 1 uM of the following molecule: CC(C)C[C@@H]1NC(=O)[C@@H]2CCCN2C(=O)[C@H](Cc2ccccc2)N(C)C(=O)[C@H](C)N(C)C(=O)[C@H]([C@@H](C)O)NC(=O)[C@@H](C(C)C)NC(=O)C[C@@H](C(=O)N2CCCCC2)NC(=O)[C@H](CC(C)C)N(C)C(=O)[C@H](C)N(C)C(=O)[C@H](Cc2ccccc2)NC(=O)[C@H](C(C)C)N(C)C1=O [DP-146] ([dV]T[NMeA][NMeF]PL[NMeV]F[NMeA][NMeL]D-Piperidide; lactam N-11)
Result string: 52
